Experimental target: empty disulfide-stabilized HLA-A*02:01(Y84C/A139C) in complex with beta-2 microglobulin (human)
Assay text: isothermal analysis of nanoscale
pKd: −log10 of the molar value.

Binder: GLGGGGGGV [GV9 (…), simplified NV9 derivative that retains the anchor residues L and V]
pKd: 6.44
